Target: T1, 4H3753-AA
T1 chain: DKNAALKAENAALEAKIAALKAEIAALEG
Experiment: two-hybrid library CCmax;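 further: natural log of median RNA to DNA barcode read ratio; higher means stronger binding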
Details: mean of both orientations
valueKind: interaction score
Give your answer as a number; write no unit.

Recorded interaction score, per entry:
In [3]: df
Out[3]:
                                     binder  result
0  DKIAALEAKIAALEAENAALKAEIAALKG [4H2330-AA]   -1.31
1  DKIAALEAENAALKAEIAALKAKIAALEG [4H2253-AA]   -1.13

Recorded result, DKNAALEAKIAALKAEIAALEAENAALEG [4H3395-AA] , interaction score: -0.825
